Provide the recorded inhibition for the entries that follow.
- MEASUREMENT TARGET: DNA topoisomerase 2-alpha (Homo sapiens) (UniProt P11388)
- Sequence (P11388 whole entry): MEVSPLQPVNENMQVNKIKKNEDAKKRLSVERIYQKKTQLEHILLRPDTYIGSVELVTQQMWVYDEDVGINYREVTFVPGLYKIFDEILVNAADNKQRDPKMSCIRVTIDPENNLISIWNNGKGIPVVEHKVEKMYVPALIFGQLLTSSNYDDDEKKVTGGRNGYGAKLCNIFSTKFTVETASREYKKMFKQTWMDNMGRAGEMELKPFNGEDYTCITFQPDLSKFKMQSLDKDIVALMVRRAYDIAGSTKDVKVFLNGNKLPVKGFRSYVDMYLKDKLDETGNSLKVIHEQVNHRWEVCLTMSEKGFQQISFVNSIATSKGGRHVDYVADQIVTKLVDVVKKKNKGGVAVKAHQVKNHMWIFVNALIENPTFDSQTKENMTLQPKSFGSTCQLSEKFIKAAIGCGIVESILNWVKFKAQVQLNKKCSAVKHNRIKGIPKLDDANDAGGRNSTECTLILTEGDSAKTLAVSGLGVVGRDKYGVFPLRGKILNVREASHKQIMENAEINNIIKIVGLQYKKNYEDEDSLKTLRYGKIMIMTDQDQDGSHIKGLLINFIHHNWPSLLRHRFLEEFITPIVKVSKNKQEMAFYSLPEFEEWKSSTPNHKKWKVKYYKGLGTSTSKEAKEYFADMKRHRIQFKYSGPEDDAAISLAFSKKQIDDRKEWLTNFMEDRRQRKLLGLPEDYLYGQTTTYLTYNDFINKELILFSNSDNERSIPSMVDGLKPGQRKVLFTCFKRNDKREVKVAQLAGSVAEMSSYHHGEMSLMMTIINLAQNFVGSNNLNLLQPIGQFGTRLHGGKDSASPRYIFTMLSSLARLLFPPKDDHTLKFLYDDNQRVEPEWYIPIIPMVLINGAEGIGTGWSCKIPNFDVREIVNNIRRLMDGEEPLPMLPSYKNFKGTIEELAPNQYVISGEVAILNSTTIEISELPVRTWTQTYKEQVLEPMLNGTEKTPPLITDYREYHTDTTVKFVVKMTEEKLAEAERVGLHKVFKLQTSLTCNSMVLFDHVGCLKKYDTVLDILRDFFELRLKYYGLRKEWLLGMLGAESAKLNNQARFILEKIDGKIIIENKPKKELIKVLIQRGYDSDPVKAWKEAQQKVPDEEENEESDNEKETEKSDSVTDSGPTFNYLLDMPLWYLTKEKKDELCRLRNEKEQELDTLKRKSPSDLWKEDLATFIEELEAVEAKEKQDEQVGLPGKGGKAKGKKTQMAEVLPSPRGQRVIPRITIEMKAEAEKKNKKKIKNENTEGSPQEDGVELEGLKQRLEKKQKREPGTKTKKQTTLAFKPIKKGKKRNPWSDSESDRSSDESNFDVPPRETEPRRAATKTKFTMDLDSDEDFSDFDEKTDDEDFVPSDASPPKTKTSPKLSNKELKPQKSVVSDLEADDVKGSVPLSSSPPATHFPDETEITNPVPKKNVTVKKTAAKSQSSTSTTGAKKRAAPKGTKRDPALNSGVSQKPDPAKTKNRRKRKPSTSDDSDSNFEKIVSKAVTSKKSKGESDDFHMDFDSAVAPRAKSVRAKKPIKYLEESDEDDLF
- ASSAY COMMENT: Inhibition of human recombinant TOP2A-mediated relaxation of supercoiled Escherichia coli pBR322 DNA at 20 uM after 30 mins by transillumination
The reply should be a number in %, with the unit left off.

DNA topoisomerase 2-alpha (Homo sapiens) (UniProt P11388) data for Oc1cccc(-c2cc(-c3ccccc3)nc(-c3ccsc3)c2)c1 ; its inhibition: 30.8

DNA topoisomerase 2-alpha (Homo sapiens) (UniProt P11388) data for Oc1ccccc1-c1cc(-c2ccccc2)nc(-c2ccco2)c1 ; its inhibition: 3.1

DNA topoisomerase 2-alpha (Homo sapiens) (UniProt P11388) data for Oc1cccc(-c2cc(-c3ccccc3)nc(-c3cccnc3)c2)c1 ; its inhibition: 21.3

DNA topoisomerase 2-alpha (Homo sapiens) (UniProt P11388) data for Oc1ccc(-c2cc(-c3ccccc3)cc(-c3cccs3)n2)cc1 ; its inhibition: 1.3

DNA topoisomerase 2-alpha (Homo sapiens) (UniProt P11388) data for Oc1ccccc1-c1cc(-c2ccccc2)cc(-c2ccccc2O)n1 ; its inhibition: 12.1

DNA topoisomerase 2-alpha (Homo sapiens) (UniProt P11388) data for Oc1cccc(-c2cc(-c3ccccc3)cc(-c3ccco3)n2)c1 ; its inhibition: 38.6

DNA topoisomerase 2-alpha (Homo sapiens) (UniProt P11388) data for Oc1cccc(-c2cc(-c3ccccc3)cc(-c3ccncc3)n2)c1 ; its inhibition: 1.8

DNA topoisomerase 2-alpha (Homo sapiens) (UniProt P11388) data for Oc1cccc(-c2cc(-c3ccccc3)nc(-c3ccco3)c2)c1 ; its inhibition: 31.1

DNA topoisomerase 2-alpha (Homo sapiens) (UniProt P11388) data for Oc1ccc(-c2cc(-c3ccccc3)cc(-c3ccco3)n2)cc1 ; its inhibition: 10.2

DNA topoisomerase 2-alpha (Homo sapiens) (UniProt P11388) data for Oc1ccc(-c2cc(-c3ccccc3)nc(-c3ccco3)c2)cc1 ; its inhibition: 10.3

DNA topoisomerase 2-alpha (Homo sapiens) (UniProt P11388) data for COc1cc([C@@H]2c3cc4c(cc3[C@@H](O[C@@H]3O[C@@H]5CO[C@@H](C)O[C@H]5[C@H](O)[C@H]3O)[C@H]3COC(=O)[C@H]23)OCO4)cc(OC)c1O [ETOPOSIDE] ; its inhibition: 30.4

DNA topoisomerase 2-alpha (Homo sapiens) (UniProt P11388) data for Oc1cccc(-c2cc(-c3ccccc3)cc(-c3ccsc3)n2)c1 ; its inhibition: 37.2

DNA topoisomerase 2-alpha (Homo sapiens) (UniProt P11388) data for Oc1cccc(-c2cc(-c3ccccc3)nc(-c3cccs3)c2)c1 ; its inhibition: 34.7

DNA topoisomerase 2-alpha (Homo sapiens) (UniProt P11388) data for Oc1cccc(-c2cc(-c3ccccc3)cc(-c3cccc(O)c3)n2)c1 ; its inhibition: 49

DNA topoisomerase 2-alpha (Homo sapiens) (UniProt P11388) data for Oc1cccc(-c2cc(-c3ccccc3)nc(-c3ccccn3)c2)c1 ; its inhibition: 21.3

DNA topoisomerase 2-alpha (Homo sapiens) (UniProt P11388) data for Oc1cccc(-c2cc(-c3ccccc3)nc(-c3ccncc3)c2)c1 ; its inhibition: 32.7

DNA topoisomerase 2-alpha (Homo sapiens) (UniProt P11388) data for Oc1cccc(-c2cc(-c3ccccc3)cc(-c3ccccc3)n2)c1 ; its inhibition: 32

DNA topoisomerase 2-alpha (Homo sapiens) (UniProt P11388) data for Oc1cccc(-c2cc(-c3ccccc3)cc(-c3cccs3)n2)c1 ; its inhibition: 43.5

DNA topoisomerase 2-alpha (Homo sapiens) (UniProt P11388) data for Oc1cccc(-c2cc(-c3ccccc3)nc(-c3ccccc3)c2)c1 ; its inhibition: 32

DNA topoisomerase 2-alpha (Homo sapiens) (UniProt P11388) data for Oc1ccc(-c2cc(-c3ccccc3)cc(-c3ccc(O)cc3)n2)cc1 ; its inhibition: 33.7

DNA topoisomerase 2-alpha (Homo sapiens) (UniProt P11388) data for Oc1ccc(-c2cc(-c3ccccc3)cc(-c3ccsc3)n2)cc1 ; its inhibition: 8.3
